Sourced from patent US10287255B2

Target: human recombinant HDAC1 (Homo sapiens)
Sequence (Q13547 whole entry): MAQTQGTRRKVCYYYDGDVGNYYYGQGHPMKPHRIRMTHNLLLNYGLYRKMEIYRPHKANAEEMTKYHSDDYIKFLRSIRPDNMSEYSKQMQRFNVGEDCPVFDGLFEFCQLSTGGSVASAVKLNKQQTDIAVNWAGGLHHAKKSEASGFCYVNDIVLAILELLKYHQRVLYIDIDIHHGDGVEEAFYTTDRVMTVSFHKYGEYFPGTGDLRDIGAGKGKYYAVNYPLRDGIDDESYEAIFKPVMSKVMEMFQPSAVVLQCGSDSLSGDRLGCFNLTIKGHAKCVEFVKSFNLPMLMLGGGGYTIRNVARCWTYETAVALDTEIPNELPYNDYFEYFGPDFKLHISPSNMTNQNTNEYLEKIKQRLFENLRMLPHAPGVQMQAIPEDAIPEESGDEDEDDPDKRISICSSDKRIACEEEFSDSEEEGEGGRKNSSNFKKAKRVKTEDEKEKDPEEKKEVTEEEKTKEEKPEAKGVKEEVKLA
Assay: HDAC1 enzyme activity inhibition assay (in vitro, fluorimetric)
Details: human recombinant HDAC1, fluorimetric kit, 30° C. 60 minutes
pIC50: −log10 of the molar value.

compound | test.target | comparison.sign | pIC50
C[C@@H]1CN(Cc2ccc(C(=O)NO)cc2)C[C@H](C)N1S(=O)(=O)c1ccccc1 | human recombinant HDAC1 (Homo sapiens) | < | 5.00
C[C@@H]1CN(Cc2ccc(C(=O)NO)cc2)C[C@H](C)N1C(=O)c1cccc(CN2CCOCC2)c1 | human recombinant HDAC1 (Homo sapiens) | = | 4.96
C[C@@H]1CN(Cc2ccccc2Cl)C[C@H](C)N1Cc1ccc(C(=O)NO)cc1 | human recombinant HDAC1 (Homo sapiens) | = | 5.26
CCN1CCN(Cc2cccc(CN3[C@H](C)CN(Cc4ccc(C(=O)NO)cc4)C[C@@H]3C)c2)CC1 | human recombinant HDAC1 (Homo sapiens) | = | 5.36
C[C@@H]1CN(Cc2ccc(-c3ccco3)cc2)C[C@H](C)N1Cc1ccc(/C=C/C(=O)NO)cc1 | human recombinant HDAC1 (Homo sapiens) | = | 5.57
C[C@@H]1CN(Cc2ccc(C(=O)NO)cc2)C[C@@H](C)N1C(=O)c1ccco1 | human recombinant HDAC1 (Homo sapiens) | = | 4.81
C[C@@H]1CN(Cc2ccc(/C=C/C(=O)NO)cc2)C[C@H](C)N1Cc1cccc(CN2CCOCC2)c1 | human recombinant HDAC1 (Homo sapiens) | = | 6.70
C[C@@H]1CN(Cc2ccccc2)C[C@H](C)N1Cc1ccc(/C=C/C(=O)NO)cc1 | human recombinant HDAC1 (Homo sapiens) | = | 5.21
C[C@@H]1CN(C(=O)c2cccnc2)C[C@H](C)N1Cc1ccc(C(=O)NO)cc1 | human recombinant HDAC1 (Homo sapiens) | < | 5.00
C[C@@H]1CN(Cc2ccc(C(=O)NO)cc2)C[C@H](C)N1C(=O)c1ccc(CN2CC[C@@H](F)C2)cc1 | human recombinant HDAC1 (Homo sapiens) | = | 5.36
C[C@@H]1CN(C(=O)c2ccccc2C2=CCOCC2)C[C@H](C)N1Cc1ccc(C(=O)NO)cc1 | human recombinant HDAC1 (Homo sapiens) | = | 4.84
C[C@@H]1CN(C(=O)c2ccccc2Cl)C[C@H](C)N1Cc1ccc(C(=O)NO)cc1 | human recombinant HDAC1 (Homo sapiens) | = | 4.88
C[C@@H]1CN(Cc2ccc(C(=O)NO)cc2)C[C@H](C)N1C(=O)c1cccc(CN2CCCC2)c1 | human recombinant HDAC1 (Homo sapiens) | = | 6.00
CCCC(=O)N1[C@H](C)CN(Cc2ccc(C(=O)NO)cc2)C[C@@H]1C | human recombinant HDAC1 (Homo sapiens) | = | 5.09
CCN(CC)Cc1cccc(CN2C[C@@H](C)N(Cc3ccc(/C=C/C(=O)NO)cc3)[C@@H](C)C2)c1 | human recombinant HDAC1 (Homo sapiens) | = | 6.05
CCN(CC)C[C@@H](C)NCc1cccc(CN2[C@H](C)CN(Cc3ccc(C(=O)NO)cc3)C[C@@H]2C)c1 | human recombinant HDAC1 (Homo sapiens) | = | 5.02
C[C@@H]1CN(Cc2ccc(C(=O)NO)cc2)C[C@H](C)N1Cc1ccc(CN2CCOCC2)cc1 | human recombinant HDAC1 (Homo sapiens) | < | 5.00
C[C@@H]1CN(Cc2ccc(C(=O)NO)cc2)C[C@H](C)N1Cc1cccc(-c2ccoc2)c1 | human recombinant HDAC1 (Homo sapiens) | = | 5.06
CC(c1ccc(C(=O)NO)cc1)N1C[C@@H](C)N(Cc2ccccc2)[C@@H](C)C1 (stereo partly drawn) | human recombinant HDAC1 (Homo sapiens) | < | 5.00
C[C@@H]1CN(Cc2cc(F)c(F)cc2F)C[C@H](C)N1Cc1ccc(C(=O)NO)cc1 | human recombinant HDAC1 (Homo sapiens) | < | 5.00
C[C@@H]1CN(C(=O)c2ccc(C(=O)NO)cc2)C[C@H](C)N1Cc1ccccc1 | human recombinant HDAC1 (Homo sapiens) | = | 4.69
CC(C)CCN1C[C@@H](C)N(Cc2ccc(C(=O)NO)cc2)[C@@H](C)C1 | human recombinant HDAC1 (Homo sapiens) | = | 4.90
CC(=O)N1[C@H](C)CN(Cc2ccc(C(=O)NO)cc2)C[C@@H]1C | human recombinant HDAC1 (Homo sapiens) | = | 4.90
C[C@@H]1CN(Cc2ccc(C(=O)NO)cc2)C[C@H](C)N1C(=O)c1ccccc1-c1ccncc1 | human recombinant HDAC1 (Homo sapiens) | = | 5.15
